Listing of entries alongside the reported melting point.
Counter-ions that a name gives are not always drawn.

Example compounds with recorded melting point:
CN(C)[C@H](CCNC(=O)N[C@@H]1CCc2ccccc2C1)c1ccsc1 [Compound 71] | 112 to 114 °C
CN(C)C(CNC(=O)N1Cc2ccc(Cl)cc2C1)c1ccsc1 (centres unmarked) (as salt: hydrochloride) [Compound 4a] | 210 to 215 °C (dec.)
CN(C)[C@@H](CCNC(=O)N[C@H]1CCc2ccccc2C1)c1ccsc1 [Compound 74] | 144 to 146 °C

Reported melting point, compound CN(C)C(CNC(=O)N1Cc2ccc(F)cc2C1)c1ccsc1 (single isomer, unassigned) (as salt: hydrochloride) [2a-ent-(+)] : ____ 150 to 155 °C (dec.)

Let us now turn to CN(C)C(CNC(=O)N1Cc2ccccc2C1)c1ccsc1 (centres unmarked) (as salt: hydrochloride) [Compound 1a] 145 to 150 °C (dec.)

Let us now turn to Cc1ccc2c(c1)CN(C(=O)NCC(c1ccsc1)N(C)C)C2 (centres unmarked) (as salt: hydrochloride) [Compound 12a] 200 to 202 °C (dec.)

Let us now turn to COc1ccc(C(CNC(=O)N2Cc3ccc(F)cc3C2)N(C)C)cc1 (centres unmarked) (as salt: hydrochloride) [Compound 16a] 145 to 149 °C (dec.)

Let us now turn to CN(C)C1(CNC(=O)N[C@@H]2CCc3ccccc3C2)CCCCC1 [Compound 55] 192 to 194 °C

---

# testedOn: human OPRM1 (μ, MOR) (Homo sapiens, UniProt P35372)
# Construct: host or cells: CHO-K1
# Sequence (P35372 whole entry): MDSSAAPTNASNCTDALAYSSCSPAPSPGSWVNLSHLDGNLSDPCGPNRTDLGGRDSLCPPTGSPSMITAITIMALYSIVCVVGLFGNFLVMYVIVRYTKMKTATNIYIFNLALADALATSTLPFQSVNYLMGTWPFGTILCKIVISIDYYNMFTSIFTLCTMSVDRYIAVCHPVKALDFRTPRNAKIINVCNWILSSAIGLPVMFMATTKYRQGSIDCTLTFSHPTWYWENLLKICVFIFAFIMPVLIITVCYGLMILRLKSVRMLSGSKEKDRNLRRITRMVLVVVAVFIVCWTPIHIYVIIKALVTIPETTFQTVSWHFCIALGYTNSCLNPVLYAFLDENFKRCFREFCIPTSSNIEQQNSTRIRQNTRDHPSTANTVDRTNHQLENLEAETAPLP
# Assay type: cell-based
# measurementConditions: relative activity from EC50 and Emax of β-arrestin vs cAMP; lower RA = more G-protein biased
Structures can show the parent of a compound that is named as a salt.
propertyMeasured: ΔRA of compound
// response body must contain only the number

Identify the measured ΔRA of compound of CN(C)C(CNC(=O)NC1CCCc2c(O)cccc21)c1ccsc1 (stereo not drawn) for human OPRM1 (μ, MOR) (Homo sapiens, UniProt P35372). −1.67

Let us now turn to CN(C)C1(CNC(=O)N2Cc3ccc(F)cc3C2)CCCCC1 −2.19

Let us now turn to CN(C)C(CNC(=O)NC1CCCc2ccccc21)c1ccsc1 (stereo not drawn) [Compound 11a, hydrochloride] −1.24

Let us now turn to CN(C)C(CNC(=O)N1CCCc2cc(O)ccc21)c1ccsc1 (stereo not drawn) −1.93

Let us now turn to CN(C)C(CNC(=O)N1Cc2ccccc2C1)c1ccccc1 (single isomer, unassigned) [Compound 58] −1.65

---

# testedOn: human OPRM1 (μ, MOR) (Homo sapiens)
# Construct: host or cells: CHO-K1
# procedureDetails: cell-based
# measurementConditions: OPRM1, read-out: cAMP Emax
# Procedure: G-protein signaling was measured via second messenger cAMP modulation. Detection of cAMP modulation was accomplished in the PathHunter human OPRM1 (μ, MOR) Arrestin CHO-K1 cell line using the Dynamic2 cAMP Kit from Cisbio.
Structures can show the parent of a compound that is named as a salt.
Listing of entries alongside the reported Emax.
Number in %, nothing else.

CN(C)C(CNC(=O)N1Cc2ccc(F)cc2C1)c1ccc(F)cc1Cl (stereo not shown) [Compound 17a, hydrochloride] | 111
CN(C)C1(CNC(=O)N[C@@H]2CCc3ccccc3C2)CCCCC1 [Compound 55] | 36.6

Reported Emax, compound CN(C)C(CNC(=O)N1CCCc2cc(F)ccc21)c1ccccc1 (stereo not shown) [Compound 70a] : ____ 90.3

---

# testedOn: human OPRM1 (μ, MOR) (Homo sapiens)
# Construct: host or cells: CHO-K1
# procedureDetails: cell-based
# measurementConditions: PathHunter human OPRM1 Arrestin CHO-K1 cell line; read-out: cAMP EC50
pEC50: −log10 of the molar value. Structures can show the parent of a compound that is named as a salt.
Decision: pEC50 >= 7 yields Fulfilled, all other cases yield Not fulfilled.

Reference set (6 entries):
CN(C)C(CNC(=O)N1Cc2ccccc2C1)c1ccc(F)cc1Cl (stereo not drawn) [Compound 14a, hydrochloride] | Fulfilled
CN(C)[C@H](CCNC(=O)N1CC[C@@H](c2ccccc2)C1)c1ccsc1 | Not fulfilled
CN(C)C(CNC(=O)N[C@@H]1CCc2ccc(O)cc2C1)c1ccsc1 (stereo partly drawn) | Fulfilled
CN(C)C(CNC(=O)NC1CCc2ccccc2C1)c1ccsc1 (stereo not drawn) [Compound 10a, hydrochloride] | Fulfilled
CN(C)C1(CNC(=O)N2Cc3ccccc3C2)CCCCC1 | Not fulfilled
CNC(CNC(=O)N1Cc2ccccc2C1)c1ccccc1 (stereo not drawn) [Compound 38] | Fulfilled

Note: attention shifts to another entry.
Check if pEC50 >= 7 (inclusive). Item: CN(C(=O)OC(C)(C)C)C(CNC(=O)N1Cc2ccc(F)cc2C1)c1ccsc1 (stereo not drawn) Not fulfilled

---

# testedOn: human OPRM1 (μ, MOR) (Homo sapiens, UniProt P35372)
# Construct: host or cells: CHO-K1
# procedureDetails: cell-based
# measurementConditions: OPRM1, read-out: cAMP Emax
Counter-ions that a name gives are not always drawn.
Decision: Emax >= 90% yields Y, all other cases yield N.

CN(C)C(CNC(=O)N1CCCc2cc(O)ccc21)c1ccsc1 (stereo not drawn) | Y

Check if Emax >= 90% (inclusive). Item: CN(C)C(CNC(=O)N1Cc2ccccc2C1)c1ccccc1 (stereo not drawn) [Compound 18a, hydrochloride] Y

Let us now turn to CN(C)[C@@H](CCNC(=O)N1CC[C@@H](c2ccccc2)C1)c1ccsc1 N

Let us now turn to CN(C)C(CNC(=O)N[C@@H]1CCc2ccc(O)cc2C1)c1ccsc1 (stereo partly drawn) N

Let us now turn to C[C@@H](NC(=O)[C@@H](N)Cc1ccc(O)cc1)C(=O)NCC(=O)N(C)[C@@H](Cc1ccccc1)C(=O)NCCO [DAMGO, H-Tyr-D-Ala-Gly-NMe-Phe-Gly-OH, reference compound] Y

Let us now turn to CN(C)C(CNC(=O)N1CC[C@H](c2ccccc2)C1)c1ccsc1 (stereo partly drawn) N

---

Listing of entries alongside the reported ΔRA of compound.
# testedOn: human OPRM1 (μ, MOR) (Homo sapiens)
# Construct: host or cells: CHO-K1
# Format: cell-based
# measurementConditions: relative activity from EC50 and Emax of β-arrestin vs cAMP; lower RA = more G-protein biased
Where a name gives a salt, the structure may show the parent alone.
// response body must contain only the number

Example compounds with recorded ΔRA of compound:
CNC(CNC(=O)N1Cc2cccc(F)c2C1)c1ccsc1 (centres unmarked) [Compound 80] | −2.14
CN(C)C(CNC(=O)N1Cc2ccccc2C1)c1ccsc1 (centres unmarked) [Compound 1a, hydrochloride] | −2.06
CN(C)[C@H](CCNC(=O)N1Cc2ccc(F)cc2C1)c1ccsc1 | −2.05
CN(C)C(CNC(=O)N1Cc2ccc(F)cc2C1)c1ccc(F)cc1Cl (centres unmarked) [Compound 17a, hydrochloride] | −2.69

Reported ΔRA of compound, compound CNC(CNC(=O)N1Cc2ccccc2C1)c1ccccc1 (centres unmarked) [Compound 38] : ____ −2.74

---

Listing of entries alongside the reported pEC50.
# testedOn: human OPRM1 (μ, MOR) (Homo sapiens, UniProt P35372)
# Construct: host or cells: CHO-K1
# procedureDetails: cell-based
# measurementConditions: PathHunter human OPRM1 Arrestin CHO-K1 cell line; read-out: β-Arrestin EC50
pEC50: −log10 of the molar value. Where a name gives a salt, the structure may show the parent alone.

CN(C)C(CNC(=O)N1Cc2ccccc2C1)c1ccccc1 (centres unmarked) [Compound 18a, hydrochloride] | 6.14
COc1ccc2c(c1)CN(C(=O)NCC(c1ccsc1)N(C)C)C2 (centres unmarked) [Compound 5a, hydrochloride] | < 4.00
CN(C)C(CNC(=O)NC1CCc2ccccc2C1)c1ccsc1 (centres unmarked) [Compound 10a, hydrochloride] | < 4.00
CN(C)C(CNC(=O)N1Cc2ccc(F)cc2C1)c1ccsc1 (single isomer, unassigned; (-)) [2a-ent-(−), hydrochloride] | < 4.00
CN(C)C(CNC(=O)N[C@H]1CCc2ccccc2C1)c1ccsc1 (some centres unmarked) [Compound 51] | < 4.00
CN(C)[C@H](CCNC(=O)N[C@@H]1CCc2ccccc2C1)c1ccsc1 [Compound 71] | 5.74
CN(C)C(CNC(=O)N1CCCc2ccc(F)cc21)c1ccsc1 (centres unmarked) [Compound 8a] | < 4.00

# ---- query compound ----
Reported pEC50, compound CN(C)C1(CNC(=O)N2Cc3ccccc3C2)CCCC1 [Compound 64] : ____ < 4.00

---

Listing of entries alongside the reported melting point.
Counter-ions that a name gives are not always drawn.

CN(C)C1(CNC(=O)N[C@H]2CCc3ccccc3C2)CCCCC1 | 191 to 193 °C
CN(C)C(CNC(=O)N1CCCc2cc(O)ccc21)c1ccsc1 (stereo not shown) | 163 °C (dec.)
CN(C)C(CNC(=O)N1Cc2ccc(F)cc2C1)c1ccc(O)cc1 (stereo not shown) | 180 to 185 °C (dec.)
CN(C)C(CNC(=O)N1Cc2ccccc2C1)c1ccccc1 (stereo not shown) (as salt: hydrochloride) [Compound 18a] | 107 to 108 °C
CN(C)C(CNC(=O)NC1CCc2ccccc2C1)c1ccsc1 (stereo not shown) (as salt: hydrochloride) [Compound 10a] | 151 to 153 °C

Reported melting point, compound CN(C)C1(CNC(=O)N2Cc3ccccc3C2)CCCCC1 : ____ 225 to 227 °C

Let us now turn to CN(C)C(CNC(=O)N1Cc2ccc(O)cc2C1)c1ccsc1 (stereo not shown) (as salt: hydrobromid) [Compound 22, hydrobromide] 134 °C (dec.)
